- setup conditions: 318.15 K; 100 kPa; Liquid; Single path-length method
Below is a list of entries, each paired with its recorded speed of sound value.
Respond numerically; units are m/s and should not be typed.

Completed entries (count: 4):
molecule: CCCCCCC(=O)[O-].CN(C)C(=[NH2+])N(C)C [1,1,3,3-tetramethylguanidinium heptanoate]
speed of sound, m/s: 1447.2

molecule: CCCCCCCC(=O)[O-].CN(C)C(=[NH2+])N(C)C [1,1,3,3-tetramethylguanidinium octanoate]
speed of sound, m/s: 1417.5

molecule: CCCCCC(=O)[O-].CN(C)C(=[NH2+])N(C)C [1,1,3,3-tetramethylguanidinium hexanoate]
speed of sound, m/s: 1455.4

molecule: CCCC(=O)[O-].CN(C)C(=[NH2+])N(C)C [1,1,3,3-tetramethylguanidinium butanoate]
speed of sound, m/s: 1508

Name the reported speed of sound value associated with the molecule CCCCC(=O)[O-].CN(C)C(=[NH2+])N(C)C [1,1,3,3-tetramethylguanidinium pentanoate]
1460.8

* * *

- test summary: refractive index (Na D-line) (dimensionless)
- setup conditions: 328.15 K; 100 kPa; Liquid; Standard Abbe refractometry
± gives the expanded uncertainty stated by the source.
test readout: refractive index

Completed entries (count: 3):
compound: CCCCCC(=O)[O-].CN(C)C(=[NH2+])N(C)C [1,1,3,3-tetramethylguanidinium hexanoate]
assay value: 1.4563 ± 0.01
//
compound: CCCCCCCC(=O)[O-].CN(C)C(=[NH2+])N(C)C [1,1,3,3-tetramethylguanidinium octanoate]
assay value: 1.4523 ± 0.01
//
compound: CCCC(=O)[O-].CN(C)C(=[NH2+])N(C)C [1,1,3,3-tetramethylguanidinium butanoate]
assay value: 1.4727 ± 0.01

Name the reported refractive index value associated with the compound CCCCC(=O)[O-].CN(C)C(=[NH2+])N(C)C [1,1,3,3-tetramethylguanidinium pentanoate]
1.4648 ± 0.01

Name the reported refractive index value associated with the compound CCCCCCC(=O)[O-].CN(C)C(=[NH2+])N(C)C [1,1,3,3-tetramethylguanidinium heptanoate]
1.4674 ± 0.01

* * *

- setup conditions: 293.15 K; 100 kPa; Liquid; Vibrating tube method
test readout: mass density (kg/m3)
Respond numerically; units are kg/m3 and should not be typed.

compound: CCCCCC(=O)[O-].CN(C)C(=[NH2+])N(C)C [1,1,3,3-tetramethylguanidinium hexanoate]
mass density [kg/m3]: 997.51
//
compound: CCCCCCC(=O)[O-].CN(C)C(=[NH2+])N(C)C [1,1,3,3-tetramethylguanidinium heptanoate]
mass density [kg/m3]: 986.16

Now consider the entry below.
Name the reported mass density value associated with the compound CCCCC(=O)[O-].CN(C)C(=[NH2+])N(C)C [1,1,3,3-tetramethylguanidinium pentanoate]
1010.3
